Reported IC50 by item:
Target: human CD73 (Homo sapiens)
Sequence (P21589 27-549): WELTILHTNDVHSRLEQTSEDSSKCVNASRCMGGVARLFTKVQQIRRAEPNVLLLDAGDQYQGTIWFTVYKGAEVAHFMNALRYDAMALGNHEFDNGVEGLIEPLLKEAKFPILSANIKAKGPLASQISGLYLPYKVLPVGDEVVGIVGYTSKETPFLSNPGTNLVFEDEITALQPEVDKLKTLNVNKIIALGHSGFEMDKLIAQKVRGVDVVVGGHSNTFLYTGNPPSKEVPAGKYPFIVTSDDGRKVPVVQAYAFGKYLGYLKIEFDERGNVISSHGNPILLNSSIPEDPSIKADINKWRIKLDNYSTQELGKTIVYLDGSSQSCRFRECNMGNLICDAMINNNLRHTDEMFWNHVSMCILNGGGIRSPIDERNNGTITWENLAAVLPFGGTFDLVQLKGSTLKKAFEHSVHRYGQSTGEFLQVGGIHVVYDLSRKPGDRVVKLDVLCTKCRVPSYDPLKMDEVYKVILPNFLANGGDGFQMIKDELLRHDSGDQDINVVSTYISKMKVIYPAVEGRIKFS
Experiment: Inhibition of Ecto-5′-nucleotidase (CD73) activity in CHO-CD73 cells, phosphate release from AMP
Type: cell-based
Conditions: CHO-K1 cells stably transfected with human CD73; 25 μM AMP; 50 minutes, 37° C.; read-out: Potency: CD73 IC50

Example entries and their recorded answers appear below.
O=c1[nH]c2ccc(-n3nnc4c(F)cc(-c5ccnn5Cc5ccccn5)cc43)cc2[nH]1 = > 1 µM
O=c1[nH]c2ccc(-n3nnc4c(F)cc(-c5ccnn5Cc5ccc6[nH]ncc6c5)cc43)cc2[nH]1 = 0.1 to 1 µM

*Q* Consider the compound shown here: "N#Cc1ccc(Cn2nccc2-c2cc(F)c3c(N)nn(-c4ccc5cn[nH]c5c4)c3c2)cc1" What is its recorded IC50?
*A* 0.1 to 1 µM

*Q* Consider the compound shown here: "Cc1cc(C#N)ccc1Cn1nccc1-c1cc(F)c2nnn(-c3ccc4[nH]c(=O)[nH]c4c3)c2c1" What is its recorded IC50?
*A* 0.1 to 1 µM

*Q* Consider the compound shown here: "Fc1cc(-c2ccnn2Cc2ccc(-c3ncco3)cc2)cc2c1nnn2-c1ccc2cn[nH]c2c1" What is its recorded IC50?
*A* > 1 µM

*Q* Consider the compound shown here: "O=c1[nH]c2ccc(-n3nnc4ncc(-c5ccnn5Cc5ccc(Cl)cc5Cl)cc43)cc2[nH]1" What is its recorded IC50?
*A* 0.1 to 1 µM

*Q* Consider the compound shown here: "N#Cc1ccc(Cn2nccc2-c2cc(Cl)c3nnn(-c4ccc5cn[nH]c5c4)c3c2)nc1" What is its recorded IC50?
*A* 0.1 to 1 µM

*Q* Consider the compound shown here: "O=C(Cn1nccc1-c1cc(Cl)c2nnn(-c3ccc4cn[nH]c4c3)c2c1)N1CCCCC1" What is its recorded IC50?
*A* > 1 µM

*Q* Consider the compound shown here: "COc1ccc(Cn2nccc2-c2cc(F)c3nnn(-c4ccc5[nH]c(=O)[nH]c5c4)c3c2)c(Cl)c1" What is its recorded IC50?
*A* 0.1 to 1 µM

*Q* Consider the compound shown here: "COc1nc(-c2ccnn2Cc2ccc(C#N)cc2)cc2c1nnn2-c1ccc2cn[nH]c2c1" What is its recorded IC50?
*A* 0.1 to 1 µM

*Q* Consider the compound shown here: "Fc1cc2nnn(-c3ccc4cn[nH]c4c3)c2cc1-c1ccnn1Cc1ccccc1" What is its recorded IC50?
*A* > 1 µM
